System: A498 renal
PROTOCOL_TEXT: NCI-60 one-dose screen, 48 h (100 = growth as untreated, 0 = no growth, -100 = all killed)
CONDITION_DESCRIPTION: 10 µM
Method: Growth inhibition of the A498 human tumor cell line is measured as a screen for anti-cancer activity. Cells are grown in 96 well plates and exposed to the test compound for 48 hours. Compounds are tested at a single concentration, which is 10^-5 M for most compounds. The reported endpoint is percent growth (GI% or GIPRCNT), where numbers from 0 - 100% represent growth inhibition, and numbers from -100% - 0 represent cell death. For example, a value of 40 represents 60% growth inhibition. […]
This is part of a sample that, as a whole, favours compounds with a hit. Of some 83,000 tested, about 20% had one in any assay.
Label yes (1) when growth >= 80%; otherwise no (0).

INPUT: Is the recorded value of growth equal to or greater than 80% for this compound? CCN1/C(=C/C=C/C=C/c2sc3ccccc3[n+]2CC)Sc2ccccc21
OUTPUT: no (0)

INPUT: Quick check, growth >= 80%? CCCCCCCCCCCCSC(=NC)NC
OUTPUT: no (0)

INPUT: Given the entry Cc1nc(N=C(N)N)nc2ccc3ccccc3c12 , answer whether its growth meets or surpasses 80%.
OUTPUT: no (0)

INPUT: Kindly determine if growth recorded for O=C1NC(=O)c2cc([N+](=O)[O-])ccc21 is above or exactly 80%.
OUTPUT: yes (1)

INPUT: # bool: growth of NC1=C(Cl)C(=O)c2ccccc2C1=O >= 80%
OUTPUT: yes (1)

INPUT: Threshold query (growth >= 80%) on O=C1C=CC(=CC=C2C=CN(CCCCCCCCCCCO)C=C2)C=C1
OUTPUT: yes (1)

INPUT: Is reported growth greater than or equal to 80% here: Oc1ccc(N=Nc2ccccn2)c(O)c1
OUTPUT: no (0)

INPUT: Does O=[N+]([O-])C1=C(c2ccccc2)SC=C(c2ccccc2)S1 have a reported growth of at least 80%?
OUTPUT: yes (1)

The measured values listed here are drawn from PubChem BioAssay (NCI).
